All values here come from paper PMC3953731.

// reported Specific activities per item
biological target: Ima1p (Saccharomyces cerevisiae); assay: Substrate specificity of purified isomaltase; format: biochemical; settings: 100 mM substrate (pNPG 5 mM), citrate–potassium phosphate buffer, pH 7, 30 °C
Sequence (P53051 whole entry): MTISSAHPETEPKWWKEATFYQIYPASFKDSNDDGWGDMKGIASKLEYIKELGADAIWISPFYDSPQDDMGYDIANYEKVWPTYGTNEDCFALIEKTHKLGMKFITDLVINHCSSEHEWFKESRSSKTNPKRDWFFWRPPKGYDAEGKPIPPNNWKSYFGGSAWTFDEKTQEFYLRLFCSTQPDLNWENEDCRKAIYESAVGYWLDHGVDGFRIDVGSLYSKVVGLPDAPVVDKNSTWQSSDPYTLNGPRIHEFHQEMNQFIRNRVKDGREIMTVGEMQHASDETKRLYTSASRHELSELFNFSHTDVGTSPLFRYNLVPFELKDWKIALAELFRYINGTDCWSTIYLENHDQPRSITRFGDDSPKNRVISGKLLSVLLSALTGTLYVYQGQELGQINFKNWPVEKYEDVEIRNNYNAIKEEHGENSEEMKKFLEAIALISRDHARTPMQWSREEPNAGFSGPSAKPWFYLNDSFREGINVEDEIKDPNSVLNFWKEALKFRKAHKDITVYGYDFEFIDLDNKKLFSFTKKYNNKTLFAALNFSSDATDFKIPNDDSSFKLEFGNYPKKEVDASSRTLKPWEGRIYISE
Record the value in µmol/min/mg, omitting the unit from your answer.

Here is how some molecules turned out for Specific activities.
molecule	Specific activities, µmol/min/mg
OC[C@H]1O[C@H](O[C@@H]2[C@@H](CO)OC(O)(CO)[C@H]2O)[C@H](O)[C@@H](O)[C@@H]1O (stereo partly drawn)	0
OC[C@H]1O[C@H](O[C@H]2[C@H](O)[C@@H](O)[C@@H](O[C@H]3[C@H](O)[C@@H](O)C(O)O[C@@H]3CO)O[C@@H]2CO)[C@H](O)[C@@H](O)[C@@H]1O (stereo partly drawn)	3.5

Lab note: next molecule to report on.
Requested read-out: Specific activities. Entry: O=[N+]([O-])c1ccc(O[C@H]2O[C@H](CO)[C@@H](O)[C@H](O)[C@H]2O)cc1 [α-pNPG, 4-Nitrophenyl α-D-glucopyranoside]
5.8

----------
biological target: Ima2p (Saccharomyces cerevisiae, UniProt Q08295); test: Substrate specificity of purified isomaltase; assay type: biochemical; conditions: 100 mM substrate (pNPG 5 mM), citrate–potassium phosphate buffer, pH 7, 30 °C
Sequence (Q08295 whole entry): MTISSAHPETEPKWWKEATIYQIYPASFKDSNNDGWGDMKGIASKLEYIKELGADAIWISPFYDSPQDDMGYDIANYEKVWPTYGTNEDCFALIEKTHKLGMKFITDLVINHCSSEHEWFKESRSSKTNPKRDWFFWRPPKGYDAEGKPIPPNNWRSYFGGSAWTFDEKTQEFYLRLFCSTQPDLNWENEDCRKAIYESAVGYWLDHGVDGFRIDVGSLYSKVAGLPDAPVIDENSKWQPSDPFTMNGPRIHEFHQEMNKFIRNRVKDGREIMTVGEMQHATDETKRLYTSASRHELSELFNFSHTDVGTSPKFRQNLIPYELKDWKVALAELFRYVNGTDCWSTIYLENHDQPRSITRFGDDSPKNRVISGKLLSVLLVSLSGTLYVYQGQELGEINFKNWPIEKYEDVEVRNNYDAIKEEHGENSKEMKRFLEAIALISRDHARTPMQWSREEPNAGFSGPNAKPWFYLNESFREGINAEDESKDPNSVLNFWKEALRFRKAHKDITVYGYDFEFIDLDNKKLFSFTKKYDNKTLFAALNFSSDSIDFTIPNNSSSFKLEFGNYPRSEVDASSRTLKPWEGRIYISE
Recorded Specific activities values for a group of molecules are listed next.

Solved cases (3 shown):
molecule	data value
OC[C@H]1O[C@H](OC[C@H]2O[C@H](O)[C@H](O)[C@@H](O)[C@@H]2O)[C@H](O)[C@@H](O)[C@@H]1O [Isomaltose, O-α-D-Glucosyl-(1→6)-α-D-glucose]	54 µmol/min/mg
COC1OC(CO)C(O)C(O)C1O (stereo not drawn) [α-MG, α-Methylglucopyranoside]	55 µmol/min/mg
OC[C@H]1O[C@H](O[C@H]2[C@H](O)[C@@H](O)[C@@H](O[C@H]3[C@H](O)[C@@H](O)C(O)O[C@@H]3CO)O[C@@H]2CO)[C@H](O)[C@@H](O)[C@@H]1O (stereo partly drawn) [Maltotriose]	3.4 µmol/min/mg

Quick one: Specific activities of OC[C@H]1O[C@H](O[C@@H]2COC(O)(CO)[C@@H](O)[C@@H]2O)[C@H](O)[C@@H](O)[C@@H]1O (stereo partly drawn) [Leucrose, O-α-D-Glucosyl-(1→5)-D-fructose] ?
8.6 µmol/min/mg

Quick one: OC[C@H]1O[C@@](CO)(O[C@H]2O[C@H](CO)[C@@H](O)[C@H](O)[C@H]2O)[C@@H](O[C@H]2O[C@H](CO)[C@@H](O)[C@H](O)[C@H]2O)[C@@H]1O [Melezitose]
0 µmol/min/mg

Another molecule to look at: OC[C@H]1O[C@H](O[C@H]2[C@H](O)[C@@H](O)[C@H](O)O[C@@H]2CO)[C@H](O)[C@@H](O)[C@@H]1O [Maltose, O-α-D-Glucosyl-(1→4)-α-D-glucose]
0 µmol/min/mg

----------
Listing: Specific activities of selected molecules
Target: Ima5p (Saccharomyces cerevisiae, UniProt P40884)
Sequence (P40884 1-581): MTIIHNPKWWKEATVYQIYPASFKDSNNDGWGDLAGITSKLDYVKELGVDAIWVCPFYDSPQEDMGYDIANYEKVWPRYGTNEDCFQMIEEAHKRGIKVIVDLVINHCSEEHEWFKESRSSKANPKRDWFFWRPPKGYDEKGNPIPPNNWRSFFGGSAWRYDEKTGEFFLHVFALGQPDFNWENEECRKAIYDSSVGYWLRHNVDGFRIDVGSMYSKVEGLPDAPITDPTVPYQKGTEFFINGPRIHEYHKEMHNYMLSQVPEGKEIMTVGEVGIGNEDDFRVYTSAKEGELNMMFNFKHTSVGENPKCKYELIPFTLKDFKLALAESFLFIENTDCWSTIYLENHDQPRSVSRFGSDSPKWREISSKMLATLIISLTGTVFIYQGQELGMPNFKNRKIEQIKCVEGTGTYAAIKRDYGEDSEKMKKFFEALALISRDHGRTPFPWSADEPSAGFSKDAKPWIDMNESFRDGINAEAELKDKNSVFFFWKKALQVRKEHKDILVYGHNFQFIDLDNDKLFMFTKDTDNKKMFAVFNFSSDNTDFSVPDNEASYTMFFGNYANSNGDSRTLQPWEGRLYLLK
Assay: Substrate specificity of purified isomaltase
Type: biochemical
Settings: 100 mM substrate (pNPG 5 mM), citrate–potassium phosphate buffer, pH 7, 30 °C
API: value field is a number in µmol/min/mg; no unit string.

>>> print(df.to_string())
                                   molecule            u  data_value
0  OC[C@H]1O[C@H](O[C@@H]2[C@@H](O)[C@@H](O)O[C@H](CO)[C@H]2O)[C@H](O)[C@@H](O)[C@@H]1O  µmol/min/mg         4.2

// next entry
Requested field: Specific activities. Item: OC[C@H]1O[C@H](O[C@@H]2[C@@H](CO)OC(O)(CO)[C@H]2O)[C@H](O)[C@@H](O)[C@@H]1O (stereo partly drawn)
0.36

----------
Biological target: Ima5p (Saccharomyces cerevisiae, UniProt P40884)
Sequence (P40884 1-581): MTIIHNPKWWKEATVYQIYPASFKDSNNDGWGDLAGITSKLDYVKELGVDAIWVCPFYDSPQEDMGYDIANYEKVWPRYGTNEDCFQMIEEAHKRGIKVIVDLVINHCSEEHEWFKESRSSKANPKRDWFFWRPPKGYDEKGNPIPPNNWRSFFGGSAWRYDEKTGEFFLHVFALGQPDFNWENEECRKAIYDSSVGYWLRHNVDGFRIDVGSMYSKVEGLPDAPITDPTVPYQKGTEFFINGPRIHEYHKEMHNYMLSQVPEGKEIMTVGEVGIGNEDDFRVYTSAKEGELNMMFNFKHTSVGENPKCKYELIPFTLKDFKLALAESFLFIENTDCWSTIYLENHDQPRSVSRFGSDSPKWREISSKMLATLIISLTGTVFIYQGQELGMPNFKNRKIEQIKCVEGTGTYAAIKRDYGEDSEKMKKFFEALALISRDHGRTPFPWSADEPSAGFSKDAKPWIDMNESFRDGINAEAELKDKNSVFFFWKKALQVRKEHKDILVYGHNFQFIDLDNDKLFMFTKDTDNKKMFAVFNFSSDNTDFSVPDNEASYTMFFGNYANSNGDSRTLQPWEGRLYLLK
Test: Kinetic parameters for selected substrates
Type: biochemical
Details: mean ± SEM
Measured kcat by item
Report the value in s⁻¹ with no unit label.

Reference set (5 entries):
compound	target or test system	kcat (s⁻¹)
OC[C@H]1O[C@H](OC[C@H]2OC(O)(CO)[C@@H](O)[C@@H]2O)[C@H](O)[C@@H](O)[C@@H]1O (stereo partly drawn)	Ima5p (Saccharomyces cerevisiae, UniProt P40884)	56
OC[C@H]1O[C@@](CO)(O[C@H]2O[C@H](CO)[C@@H](O)[C@H](O)[C@H]2O)[C@@H](O)[C@@H]1O	Ima5p (Saccharomyces cerevisiae, UniProt P40884)	3.8
OC[C@H]1O[C@H](OC[C@H]2O[C@H](OC[C@H]3OC(O)[C@H](O)[C@@H](O)[C@@H]3O)[C@H](O)[C@@H](O)[C@@H]2O)[C@H](O)[C@@H](O)[C@@H]1O (stereo partly drawn)	Ima5p (Saccharomyces cerevisiae, UniProt P40884)	18
OC[C@H]1O[C@H](OC[C@H]2O[C@H](O[C@H]3[C@H](O)[C@@H](O)C(O)O[C@@H]3CO)[C@H](O)[C@@H](O)[C@@H]2O)[C@H](O)[C@@H](O)[C@@H]1O (stereo partly drawn)	Ima5p (Saccharomyces cerevisiae, UniProt P40884)	23
OC[C@H]1O[C@H](OC[C@H]2O[C@H](O)[C@H](O)[C@@H](O)[C@@H]2O)[C@H](O)[C@@H](O)[C@@H]1O	Ima5p (Saccharomyces cerevisiae, UniProt P40884)	101

Now look at this one.
Recorded kcat of COC1OC(CO)C(O)C(O)C1O (stereo not drawn) [α-MG, α-Methylglucopyranoside] , please.
0

----------
molecular target: Ima5p (Saccharomyces cerevisiae, UniProt P40884); assay: Substrate specificity of purified isomaltase; type: biochemical; details: 100 mM substrate (pNPG 5 mM), pH 7, 30 °C
Everything with relative activity, velocity on isomaltose set to 100 lower than 6% is rule not met; everything else, including exactly 6%, is rule met.

These recorded examples may help you get a feel for the data.
compound	category label
OC[C@H]1O[C@H](O[C@@H]2[C@@H](CO)OC(O)(CO)[C@H]2O)[C@H](O)[C@@H](O)[C@@H]1O (stereo partly shown)	rule not met
OC[C@H]1O[C@H](OC[C@H]2O[C@H](OC[C@H]3OC(O)[C@H](O)[C@@H](O)[C@@H]3O)[C@H](O)[C@@H](O)[C@@H]2O)[C@H](O)[C@@H](O)[C@@H]1O (stereo partly shown)	rule met
OC[C@H]1O[C@H](O[C@@H]2[C@@H](O)[C@H](O)[C@@H](CO)O[C@@H]2O)[C@H](O)[C@@H](O)[C@@H]1O	rule not met

Quick check: does OC[C@H]1O[C@H](OC[C@H]2O[C@H](O[C@H]3[C@H](O)[C@@H](O)C(O)O[C@@H]3CO)[C@H](O)[C@@H](O)[C@@H]2O)[C@H](O)[C@@H](O)[C@@H]1O (stereo partly shown) have relative activity, velocity on isomaltose set to 100 greater than or equal to 6%?
rule met
